Property: Remaining (T = 60 min); scope: individual molecules
# EXPERIMENT: In vitro microsomal metabolic stability, CD-1 mouse liver microsomes
# Format: in vitro ADME
# SETUP_CONDITIONS: Mouse liver microsomes, with NADPH, 60 min
Field: numeric (%). Do not append units.

MOLECULE | ASSAY_RESULT
CO[C@@H]1CC(C[C@@H](C)[C@@H]2CC[C@H](C)/C=C(\C)[C@@H](O)[C@@H](OC)C(=O)[C@H](C)C[C@H](C)/C=C/C=C/C=C(\C)C(Nc3ccccc3)CC3CC[C@@H](C)[C@@](O)(O3)C(=O)C(=O)N3CCCC[C@H]3C(=O)O2)CC[C@H]1O (some centres unmarked) | 69.80

// fetch Remaining (T = 60 min) given entry CO[C@@H]1C[C@H](C[C@@H](C)[C@@H]2CC[C@H](C)/C=C(\C)[C@@H](O)[C@@H](OC)C(=O)[C@H](C)C[C@H](C)/C=C/C=C/C=C(\C)C(Nc3ccc(Cl)cc3)C[C@@H]3CC[C@@H](C)[C@@](O)(O3)C(=O)C(=O)N3CCCCC3C(=O)O2)CC[C@H]1O (some centres unmarked)
101

Identify Remaining (T = 60 min) associated with the molecule CO[C@@H]1C[C@H](C[C@@H](C)[C@@H]2CC[C@H](C)/C=C(\C)[C@@H](O)[C@@H](OC)C(=O)[C@H](C)C[C@H](C)/C=C/C=C/C=C(\C)C(Nc3ccsc3)C[C@@H]3CC[C@@H](C)[C@@](O)(O3)C(=O)C(=O)N3CCCCC3C(=O)O2)CC[C@H]1O (some centres unmarked)
5.6

Give the value of Remaining (T = 60 min) reported for the following: CO[C@H]1C[C@@H]2CC[C@@H](C)[C@@](O)(O2)C(=O)C(=O)N2CCCC[C@H]2C(=O)O[C@H]([C@H](C)C[C@@H]2CC[C@@H](O)[C@H](OC)C2)CC[C@H](C)/C=C(\C)[C@@H](O)[C@@H](OC)C(=O)[C@H](C)C[C@H](C)/C=C/C=C/C=C/1C [32-Deoxo Rapamycin, 32-deoxorapamycin, reference compound]
36

State, in one line, measured Remaining (T = 60 min) of CO[C@@H]1C[C@H](C[C@@H](C)[C@@H]2CC[C@H](C)/C=C(\C)[C@@H](O)[C@@H](OC)C(=O)[C@H](C)C[C@H](C)/C=C/C=C/C=C(\C)C(Nc3cccc(C)c3)C[C@@H]3CC[C@@H](C)[C@@](O)(O3)C(=O)C(=O)N3CCCCC3C(=O)O2)CC[C@H]1O (some centres unmarked)
89

* * *

Listing of entries alongside the reported half-life.
# EXPERIMENT: Pharmacokinetic studies in male CD-1 mice (plasma, IV and PO)
# Format: in vivo, mouse
# SETUP_CONDITIONS: male, CD-1; mouse plasma, IV 2 mg/kg; read-out: IV T1/2 (converted)

COMPOUND | ASSAY_RESULT
CO[C@@H]1CC(C[C@@H](C)[C@@H]2CC[C@H](C)/C=C(\C)[C@@H](O)[C@@H](OC)C(=O)[C@H](C)C[C@H](C)/C=C/C=C/C=C(\C)C(Nc3ccccc3)CC3CC[C@@H](C)[C@@](O)(O3)C(=O)C(=O)N3CCCC[C@H]3C(=O)O2)CC[C@H]1O (stereo partly shown) [Compound 26] | 5.25 h
CO[C@@H]1C[C@H](C[C@@H](C)[C@@H]2CC[C@H](C)/C=C(\C)[C@@H](O)[C@@H](OC)C(=O)[C@H](C)C[C@H](C)/C=C/C=C/C=C(\C)C(Nc3cnon3)C[C@@H]3CC[C@@H](C)[C@@](O)(O3)C(=O)C(=O)N3CCCCC3C(=O)O2)CC[C@H]1O (stereo partly shown) [Compound 45] | 5.63 h
CO[C@H]1C[C@@H]2CC[C@@H](C)[C@@](O)(O2)C(=O)C(=O)N2CCCC[C@H]2C(=O)O[C@H]([C@H](C)C[C@@H]2CC[C@@H](OCCO)[C@H](OC)C2)CC(=O)[C@H](C)/C=C(\C)[C@@H](O)[C@@H](OC)C(=O)[C@H](C)C[C@H](C)/C=C/C=C/C=C/1C [RAD001, everolimus, reference compound] | 5.85 h

Now look at this entry.
Give the measured half-life for COCCN(c1ccccc1)C1C[C@@H]2CC[C@@H](C)[C@@](O)(O2)C(=O)C(=O)N2CCCC[C@H]2C(=O)OC([C@H](C)CC2CC[C@@H](O)C(OC)C2)CC[C@H](C)/C=C(\C)C(O)C(OC)C(=O)[C@H](C)C[C@H](C)/C=C/C=C/C=C/1C (stereo partly shown) [Compound 69]
15.5 h

* * *

# reported microsomal CLint at 1 µM; entries follow
# EXPERIMENT: In vitro microsomal metabolic stability, human liver microsomes
# Format: in vitro ADME
# SETUP_CONDITIONS: human, human liver microsomes, pH 7.2
The reply should be a number in µL/min/mg, with the unit left off.

Past entries and their recorded results:
COMPOUND | microsomal CLint at 1 µM / µL/min/mg
CCOc1cccc(NC2C[C@@H]3CC[C@@H](C)[C@@](O)(O3)C(=O)C(=O)N3CCCCC3C(=O)O[C@H]([C@H](C)C[C@@H]3CC[C@@H](O)[C@H](OC)C3)CC[C@H](C)/C=C(\C)[C@@H](O)[C@@H](OC)C(=O)[C@H](C)C[C@H](C)/C=C/C=C/C=C/2C)c1 (stereo partly shown) | 24.7
CO[C@@H]1C[C@H](C[C@@H](C)[C@@H]2CC[C@H](C)/C=C(\C)[C@@H](O)[C@@H](OC)C(=O)[C@H](C)C[C@H](C)/C=C/C=C/C=C(\C)C(Nc3cccc(C)c3)C[C@@H]3CC[C@@H](C)[C@@](O)(O3)C(=O)C(=O)N3CCCCC3C(=O)O2)CC[C@H]1O (stereo partly shown) | 60.8
CO[C@@H]1C[C@H](C[C@@H](C)[C@@H]2CC[C@H](C)/C=C(\C)[C@@H](O)[C@@H](OC)C(=O)[C@H](C)C[C@H](C)/C=C/C=C/C=C(\C)C(Nc3ccsc3)C[C@@H]3CC[C@@H](C)[C@@](O)(O3)C(=O)C(=O)N3CCCCC3C(=O)O2)CC[C@H]1O (stereo partly shown) | 89.3

Respond only with microsomal CLint at 1 µM recorded for COc1cccc(NC2C[C@@H]3CC[C@@H](C)[C@@](O)(O3)C(=O)C(=O)N3CCCCC3C(=O)O[C@H]([C@H](C)C[C@@H]3CC[C@@H](O)[C@H](OC)C3)CC[C@H](C)/C=C(\C)[C@@H](O)[C@@H](OC)C(=O)[C@H](C)C[C@H](C)/C=C/C=C/C=C/2C)c1 (stereo partly shown)
79.6

* * *

Reported pIC50 values for the following molecules.
# Tested on: S6K1 (Thr389) phosphorylation (mTORC1 activity) in wild-type (WT) 293T cells
# EXPERIMENT: Inhibition of S6K1 (Thr389) phosphorylation in wild-type 293T cells (ELISA)
# Assay type: cell-based, human
# SETUP_CONDITIONS: Homo sapiens, HEK-293T, 2 h, wild-type 293T cells, 2 hours treatment
To interpret pIC50, take it as minus log10 of a concentration measured in moles per litre.

MOLECULE | MEASUREMENT_TARGET | pIC50
CCOc1cccc(NC2C[C@@H]3CC[C@@H](C)[C@@](O)(O3)C(=O)C(=O)N3CCCCC3C(=O)O[C@H]([C@H](C)C[C@@H]3CC[C@@H](O)[C@H](OC)C3)CC[C@H](C)/C=C(\C)[C@@H](O)[C@@H](OC)C(=O)[C@H](C)C[C@H](C)/C=C/C=C/C=C/2C)c1 (stereo partly shown) | S6K1 (Thr389) phosphorylation (mTORC1 activity) in wild-type (WT) 293T cells | 9.77
COc1ccc(NC2C[C@@H]3CC[C@@H](C)[C@@](O)(O3)C(=O)C(=O)N3CCCCC3C(=O)O[C@H]([C@H](C)C[C@@H]3CC[C@@H](O)[C@H](OC)C3)CC[C@H](C)/C=C(\C)[C@@H](O)[C@@H](OC)C(=O)[C@H](C)C[C@H](C)/C=C/C=C/C=C/2C)cc1 (stereo partly shown) | S6K1 (Thr389) phosphorylation (mTORC1 activity) in wild-type (WT) 293T cells | 7.16
CO[C@@H]1C[C@H](C[C@@H](C)[C@@H]2CC[C@H](C)/C=C(\C)[C@@H](O)[C@@H](OC)C(=O)[C@H](C)C[C@H](C)/C=C/C=C/C=C(\C)C(Nc3cnccn3)C[C@@H]3CC[C@@H](C)[C@@](O)(O3)C(=O)C(=O)N3CCCCC3C(=O)O2)CC[C@H]1O (stereo partly shown) | S6K1 (Thr389) phosphorylation (mTORC1 activity) in wild-type (WT) 293T cells | 8.04

# next molecule below
Give pIC50 for the following molecule: CO[C@@H]1C[C@H](C[C@@H](C)[C@@H]2CC[C@H](C)/C=C(\C)[C@@H](O)[C@@H](OC)C(=O)[C@H](C)C[C@H](C)/C=C/C=C/C=C(\C)C(Nc3cccc(C)c3)C[C@@H]3CC[C@@H](C)[C@@](O)(O3)C(=O)C(=O)N3CCCCC3C(=O)O2)CC[C@H]1O (stereo partly shown)
8.24
